- Tested on: peripheral blood mononuclear leukocytes (PBML)
- Assay Protocol: PBML cytotoxicity (MTT)
- Format: cell-based, human
- Condition Parameters: con A stimulated PBML, 48 hr; read-out: Cytotoxicity Con A
pIC50: −log10 of the molar value.
Consider the following compounds; for each one, report its pIC50.

Q. Need pIC50 of NCCCCCNc1nc(NCCc2ccc(O)cc2)nc(Nc2ccc(F)cc2)n1 , thanks.
A. < 5.00

Q. Would you kindly share the measured pIC50 for NCCCCCNc1nc(NCCc2ccc(O)cc2)nc(Nc2cccc(F)c2)n1 ?
A. < 5.00

Q. What measured pIC50 goes with NCCCCCNc1nc(NCCc2ccc(S(N)(=O)=O)cc2)nc(Nc2cccc(F)c2)n1 ?
A. < 5.00
